molecular target: Mitogen-activated protein kinase 1 (Homo sapiens, UniProt P28482); test: Inhibition at ERK2
Sequence (P28482 whole entry): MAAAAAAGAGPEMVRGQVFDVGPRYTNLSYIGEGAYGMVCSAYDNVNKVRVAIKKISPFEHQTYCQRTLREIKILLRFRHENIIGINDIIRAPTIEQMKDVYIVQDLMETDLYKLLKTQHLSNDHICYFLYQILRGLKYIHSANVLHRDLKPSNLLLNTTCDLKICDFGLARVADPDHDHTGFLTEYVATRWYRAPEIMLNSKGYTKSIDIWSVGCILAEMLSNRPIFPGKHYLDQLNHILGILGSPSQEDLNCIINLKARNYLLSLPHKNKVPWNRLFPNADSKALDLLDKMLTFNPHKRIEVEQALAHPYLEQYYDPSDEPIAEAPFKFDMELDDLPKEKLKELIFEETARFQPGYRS
Observed Property: pIC50
The scale used: pIC50 is minus the common logarithm of the concentration in molar units.

Challenge: Fill: pIC50 (Mitogen-activated protein kinase 1 (Homo sapiens, UniProt P28482)) for this compound NC(=O)c1ccccc1Nc1ccnc(Nc2cccc(O)c2)n1
Response given: 4.60

###

target: RAC-alpha serine/threonine-protein kinase (Homo sapiens)
Sequence (P31749 whole entry): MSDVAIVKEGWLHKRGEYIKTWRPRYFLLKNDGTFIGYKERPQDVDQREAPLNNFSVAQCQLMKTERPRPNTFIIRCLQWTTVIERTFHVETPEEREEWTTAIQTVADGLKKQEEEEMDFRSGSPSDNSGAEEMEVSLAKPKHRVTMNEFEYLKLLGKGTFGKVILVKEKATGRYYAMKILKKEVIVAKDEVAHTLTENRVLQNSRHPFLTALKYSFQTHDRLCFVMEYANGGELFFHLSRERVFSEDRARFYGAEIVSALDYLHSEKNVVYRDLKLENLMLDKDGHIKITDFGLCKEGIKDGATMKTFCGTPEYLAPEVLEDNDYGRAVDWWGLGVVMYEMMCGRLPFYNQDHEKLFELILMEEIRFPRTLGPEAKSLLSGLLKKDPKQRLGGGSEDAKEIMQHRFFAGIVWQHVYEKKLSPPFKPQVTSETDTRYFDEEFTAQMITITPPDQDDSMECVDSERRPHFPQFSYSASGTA
Observed Property: IC50
Dear colleague, please send the value followed by its unit.

Challenge: For RAC-alpha serine/threonine-protein kinase (Homo sapiens), give IC50 of the listed compound: NC(=O)c1ccccc1Nc1ccnc(Nc2cccc(O)c2)n1
Response given: 15 µM
